# Method: HRO761 blood PK in SW48 tumour-bearing mice
# Type: in vivo, mouse
# Assay Context: female, mouse, whole blood, po, 120 mg/kg; read-out: AUCb, u above GI90, u
# Protocol: All animal studies were conducted in accordance with ethics and procedures covered by permit BS-2275 and BS-1975 issued by the Kantonales Veterinäramt Basel-Stadt and in strict adherence to guidelines of the Eidgenössisches Tierschutzgesetz and the Eidgenössische Tierschutzverordnung, Switzerland. All animal studies were approved by the internal ethics committee. […] PK parameters were determined by non-compartmental analysis. […]

>  <Cpd Smiles>
CCc1c(N2CCN(C(=O)c3ncnc(C)c3O)CC2)c(=O)n2nc(C3=CCOCC3)nc2n1CC(=O)Nc1ccc(C(F)(F)F)cc1Cl

>  <AUC [µM·h]>
27

$$$$
